In this section, each of the molecules is paired with its reported PC50.
# System: PANC-1
# Method summary: Preferential cytotoxicity against human PANC-1 cells in nutrient-deprived medium measured after 24 hrs by WST-8 cell counting analysis
# Type: functional

Molecule	Unit of measure	PC50
CC(C)=CCCC1=CC[C@H](C(=O)c2c(O)cccc2O)[C@@H](c2ccc(F)c(F)c2)C1 (relative stereo)	µM	0.33
COc1cc(O)c(C(=O)[C@H]2CC=C(CCC=C(C)C)C[C@@H]2c2cccc(F)c2F)c(O)c1 (relative stereo)	µM	0.64
COc1cc(O)c(C(=O)[C@H]2CC=C(CCC=C(C)C)C[C@@H]2c2ccc(F)cc2)c(O)c1 (relative stereo)	µM	0.39
CC(C)=CCCC1=CC[C@H](C(=O)c2c(O)cccc2O)[C@@H](c2ccc(F)cc2F)C1 (relative stereo)	µM	0.27
COc1ccc(C(=O)[C@H]2CC=C(CCC=C(C)C)C[C@@H]2c2ccccc2)c(O)c1 (relative stereo)	µM	7.32
COc1cc(O)c(C(=O)[C@H]2CC=C(CCC=C(C)C)C[C@@H]2c2cccc(F)c2)c(O)c1 (relative stereo)	µM	1.16
COc1cc(O)c(C(=O)[C@H]2CC=C(CCC=C(C)C)C[C@@H]2c2cc(F)cc(F)c2)c(O)c1	µM	0.73
COc1cc(O)c(C(=O)[C@H]2CC=C(CCC=C(C)C)C[C@@H]2c2ccc(F)c(F)c2)c(O)c1 (relative stereo)	µM	0.54
COc1cc(O)c(C(=O)[C@H]2CC=C(CCC=C(C)C)C[C@@H]2c2ccc(F)cc2F)c(O)c1 (relative stereo)	µM	0.97
CC(C)=CCCC1=CC[C@H](C(=O)c2c(O)cccc2O)[C@@H](c2cccc(F)c2)C1 (relative stereo)	µM	1.43
COc1cccc(O)c1C(=O)[C@H]1CC=C(CCC=C(C)C)C[C@@H]1c1ccccc1	µM	3.3
COc1ccc([C@H]2CC(CCC=C(C)C)=CC[C@@H]2C(=O)c2c(O)cc(OC)cc2O)cc1 (relative stereo)	µM	0.45
COc1cc(O)c(C(=O)[C@H]2CC=C(CCC=C(C)C)C[C@@H]2c2cc(F)ccc2F)c(O)c1 (relative stereo)	µM	0.5
CC(C)=CCCC1=CC[C@H](C(=O)c2c(O)cccc2O)[C@@H](c2ccc(Cl)cc2)C1 (relative stereo)	µM	0.68
COc1cc(O)c(C(=O)[C@H]2CC=C(CCC=C(C)C)C[C@@H]2c2ccccc2)c(O)c1	µM	0.55
CC(C)=CCCC1=CC[C@H](C(=O)c2c(O)cccc2O)[C@@H](c2ccccc2)C1 (relative stereo)	µM	0.4
COc1cccc(OC)c1C(=O)[C@H]1CC=C(CCC=C(C)C)C[C@@H]1c1ccccc1 (relative stereo)	µM	1.66
COc1ccc([C@H]2CC(CCC=C(C)C)=CC[C@@H]2C(=O)c2c(O)cccc2O)cc1 (relative stereo)	µM	1.08
COc1cc(O)c(C(=O)[C@H]2CC=C(CCC=C(C)C)C[C@@H]2c2ccc(C)cc2)c(O)c1 (relative stereo)	µM	0.56
COc1cc(O)c(C(=O)[C@H]2CC=C(CCC=C(C)C)C[C@@H]2c2c(F)cccc2F)c(O)c1 (relative stereo)	µM	1.49
CC(C)=CCCC1=CC[C@H](C(=O)c2c(O)cccc2O)[C@@H](c2cccc(Cl)c2Cl)C1 (relative stereo)	µM	0.45
CC(C)=CCCC1=CC[C@H](C(=O)c2c(O)cccc2O)[C@@H](c2cc(F)ccc2F)C1 (relative stereo)	µM	0.53
CC(C)=CCCC1=CC[C@H](C(=O)c2c(O)cccc2O)[C@@H](c2ccc(Cl)cc2Cl)C1 (relative stereo)	µM	0.43
CC(C)=CCCC1=CC[C@H](C(=O)c2c(O)cccc2O)[C@@H](c2ccccc2F)C1 (relative stereo)	µM	0.47
COc1cc(O)c(C(=O)[C@H]2CC=C(CCC=C(C)C)C[C@@H]2c2ccc(Cl)cc2)c(O)c1 (relative stereo)	µM	0.41
CC(C)=CCCC1=CC[C@H](C(=O)c2c(O)cccc2O)[C@@H](c2cc(F)cc(F)c2)C1 (relative stereo)	µM	0.33
CC(C)=CCCC1=CC[C@H](C(=O)c2c(O)cccc2O)[C@@H](c2ccccc2Cl)C1 (relative stereo)	µM	0.69
CC(C)=CCCC1=CC[C@H](C(=O)c2c(O)cccc2O)[C@@H](c2ccc(F)cc2)C1 (relative stereo)	µM	0.37
CC(C)=CCCC1=CC[C@H](C(=O)c2c(O)cccc2O)[C@@H](c2cccc(Cl)c2)C1 (relative stereo)	µM	0.85
CC(C)=CCCC1=CC[C@H](C(=O)c2c(O)cccc2O)[C@@H](c2c(F)cccc2F)C1 (single isomer, unassigned)	µM	1.34
COc1cc(O)c(C(=O)[C@H]2CC=C(CCC=C(C)C)C[C@@H]2c2ccccc2F)c(O)c1 (relative stereo)	µM	0.72
CC(C)=CCCC1=CC[C@H](C(=O)c2c(O)cccc2O)[C@@H](c2cccc(F)c2F)C1 (relative stereo)	µM	0.23
